tested on: K-562; assay: SRB colorimetric cell growth inhibition assay, K-562; assay type: cell-based; conditions: Homo sapiens, K562, K-562; total growth inhibition (cytostatic effect); read-out: TGI K-562
Quantity measured: IC (TGI) (µM)
The reply should be a number in µM, with the unit left off.

# annotated cases, reported IC (TGI) shown
{"Mol smiles": "COc1cc(-c2c3n(c4c(=O)oc5cc(OC(=O)[C@@H]6CCCN6)c(OC)cc5c24)CCc2cc(OC(=O)[C@@H]4CCCN4)c(OC)cc2-3)ccc1OC(=O)[C@@H]1CCCN1", "Test result": 4.93}
{"Mol smiles": "COc1cc2c(cc1O)oc(=O)c1c2c(-c2cccc([N+](=O)[O-])c2)c2c3cc(OC)c(O)cc3ccn21", "Test result": 20.1}
{"Mol smiles": "COc1cc2c(cc1O)CCn1c-2c(Br)c2c3cc(OC)c(O)cc3oc(=O)c21", "Test result": 4.02}
{"Mol smiles": "COc1cc(-c2c3n(c4c(=O)[nH]c5cc(O)c(OC)cc5c24)CCc2cc(O)c(OC)cc2-3)ccc1O", "Test result": 0.937}
{"Mol smiles": "COc1cc(-c2c3n(c4c(=O)oc5cc(OC(=O)[C@@H](N)C(C)C)c(OC)cc5c24)CCc2cc(OC(=O)[C@@H](N)C(C)C)c(OC)cc2-3)ccc1OC(=O)[C@@H](N)C(C)C", "Test result": 6.82}

Form field: IC (TGI) recorded for COc1cc(-c2c3c4cc(OC)c(OC(=O)[C@H](C)NC(=O)OC(C)(C)C)cc4oc(=O)c3n3ccc4c(OC(=O)[C@H](C)NC(=O)OC(C)(C)C)c(OC)c(OC)cc4c23)ccc1OC(=O)[C@H](C)NC(=O)OC(C)(C)C with K-562 (enter value) 6.86

Form field: IC (TGI) recorded for COc1cc(-c2c3n(c4c(=O)oc5cc(OC(=O)[C@H](C)NC(=O)[C@H](C)NC(=O)OC(C)(C)C)c(OC)cc5c24)CCc2cc(OC(=O)[C@H](C)NC(=O)[C@H](C)NC(=O)OC(C)(C)C)c(OC)cc2-3)ccc1OC(=O)[C@H](C)NC(=O)[C@H](C)NC(=O)OC(C)(C)C with K-562 (enter value) 2.68

Form field: IC (TGI) recorded for COc1cc(-c2c3c4cc(OC)c(OC(=O)CCc5ccccc5)cc4oc(=O)c3n3ccc4cc(OC(=O)CCc5ccccc5)c(OC)cc4c23)ccc1OC(=O)CCc1ccccc1 with K-562 (enter value) 1.57

Form field: IC (TGI) recorded for COc1cc2ccn3c(c(-c4ccc(OC(=O)[C@@H](N)C(C)C)c(OC)c4)c4c5cc(OC)c(OC(=O)[C@@H](N)C(C)C)cc5oc(=O)c43)c2cc1OC with K-562 (enter value) 4.62

Form field: IC (TGI) recorded for COc1cc(-c2c3c4cc(OC)c(OC(=O)[C@@H](N)Cc5ccccc5)cc4oc(=O)c3n3ccc4c(OC(=O)[C@@H](N)Cc5ccccc5)c(OC)c(OC)cc4c23)ccc1OC(=O)[C@@H](N)Cc1ccccc1 with K-562 (enter value) 3.06

---

tested on: H-MEC-1; assay: SRB colorimetric cell growth inhibition assay, H-MEC-1; format: cell-based; conditions: Homo sapiens, HMEC-1; H-MEC-1; GI=growth inhibition; read-out: GI50 H-MEC-1
Listed here are molecules together with their documented GI50.
The reply should be a number in nM, with the unit left off.

{"Mol smiles": "COc1cc(-c2c3c4cc(OC)c(OC(=O)[C@@H]5CCCN5)cc4oc(=O)c3n3ccc4c(OC(=O)[C@@H]5CCCN5)c(OC)c(OC)cc4c23)ccc1OC(=O)[C@@H]1CCCN1", "Test result": 70.5}
{"Mol smiles": "COc1cc(-c2c3c4cc(OC)c(OC(=O)[C@@H](NC(=O)OC(C)(C)C)C(C)C)cc4oc(=O)c3n3ccc4cc(OC(=O)[C@@H](NC(=O)OC(C)(C)C)C(C)C)c(OC)cc4c23)ccc1OC(=O)[C@@H](NC(=O)OC(C)(C)C)C(C)C", "Test result": 80.9}

Now for the molecule whose GI50 we want.
Tell me the measured GI50 of COc1cc2c(cc1OC)-c1c(-c3ccc(OC(=O)[C@H](C)NC(=O)OC(C)(C)C)c(OC)c3)c3c4cc(OC)c(OC(=O)[C@H](C)NC(=O)OC(C)(C)C)cc4oc(=O)c3n1CC2 , please. 281
